Taken from the supplement of paper PMC13380429.

test system: Caco-2; assay: cell viability relative to DMSO; higher = less toxic; conditions: 72 h; 10 nM
ENDPOINT LABEL: cell viability
Value and unit, in that order.

[[record]]
compound = "O=C(/C=C/c1ccc(O)c(O)c1)OCCc1ccccc1"
value_measured = "99.6%"

[[record]]
compound = "O=C(O)c1ccccc1S"
value_measured = "87.2%"

[[record]]
compound = "O=C1C2CC=CCC2C(=O)N1SC(Cl)(Cl)Cl (stereo not drawn)"
value_measured = "102%"

[[record]]
compound = "O=C(Nc1cccnn1)N1CCC(=Cc2cccc(Oc3ccc(C(F)(F)F)cn3)c2)CC1"
value_measured = "104%"

[[record]]
compound = "O=C(O)Cc1ccc(OCc2ccccc2)c(Cl)c1"
value_measured = "114%"

[[record]]
compound = "COc1ccc(-c2nc(-c3ccc(-c4cccc(Cl)c4)o3)[nH]c2-c2ccc(OC)cc2)cc1"
value_measured = "94.9%"

[[record]]
compound = "CCCCc1oc2ccc(NS(C)(=O)=O)cc2c1C(=O)c1ccc(OCCCN(CCCC)CCCC)cc1"
value_measured = "102%"

[[record]]
compound = "CCC(C)(Oc1ccc(C2(c3ccc(OC(C)(CC)C(=O)O)cc3)CCCCC2)cc1)C(=O)O (stereo not drawn) [clinofibrate]"
value_measured = "98.2%"


Batch lookup, cell viability per entry.
1. CN1C[C@H](CNC(=O)OCc2ccccc2)C[C@@H]2c3cccc4c3c(cn4C)C[C@H]21
2. CCN(C)C(=O)Oc1cccc([C@H](C)N(C)C)c1
3. CC(NCCc1ccc(O)cc1)C(O)c1ccc(O)cc1 (stereo not drawn)
4. C[C@]12CC[C@@H]3c4ccc(O)cc4CC[C@H]3[C@@H]1CC[C@@H]2OC(=O)CCC1CCCC1 [estradiol-cypionate]

1. 91.3%
2. 95.5%
3. 97.7%
4. 106%
